Target: Cytochrome P450 3A4 (Homo sapiens)
Assay: Cytochrome panel assay with activity outcomes
Conditions: recombinant CYP, pro-luciferin dealkylation, luminescence, p450-cyp3a4; series mostly up to 57.1 µM
The campaign covered roughly 16,000 compounds. About 5,100 (32%) were called active. About 25% were inconclusive and are not listed. The list shows a part of the results.
ASSAY ENDPOINT: AC50

Below: 10 compounds and their reported AC50.
>  <COMPOUND>
CCOC(=O)Cn1nnc2c(sc3nc4c(c(-c5ccc(Cl)cc5)c32)CCC4)c1=O

>  <ASSAYED SYSTEM>
Cytochrome P450 3A4 (Homo sapiens)

>  <VALUE OBSERVED>
inactive

$$$$
>  <COMPOUND>
O=C(Nc1ccccn1)c1ccco1

>  <ASSAYED SYSTEM>
Cytochrome P450 3A4 (Homo sapiens)

>  <VALUE OBSERVED>
inactive

$$$$
>  <COMPOUND>
CC(C)CNS(=O)(=O)c1cc(C(=O)N2CC(C)OC(C)C2)c(Cl)cc1Cl (centres undefined)

>  <ASSAYED SYSTEM>
Cytochrome P450 3A4 (Homo sapiens)

>  <VALUE OBSERVED>
3.16 µM (active)

$$$$
>  <COMPOUND>
Cc1noc(C)c1-c1nccc(NCc2ccccc2)n1

>  <ASSAYED SYSTEM>
Cytochrome P450 3A4 (Homo sapiens)

>  <VALUE OBSERVED>
5.01 µM (active)

$$$$
>  <COMPOUND>
COC(=O)CNC(=O)CN1C(=O)N(c2ccc(Cl)cc2)C(N(O)C(=O)Nc2ccc(Cl)cc2)C1(C)C (centres undefined)

>  <ASSAYED SYSTEM>
Cytochrome P450 3A4 (Homo sapiens)

>  <VALUE OBSERVED>
4.47 µM (active)

$$$$
>  <COMPOUND>
O=C(/C=C/c1ccc(Cl)cc1)Nc1ccc(N2CCCCC2)cc1

>  <ASSAYED SYSTEM>
Cytochrome P450 3A4 (Homo sapiens)

>  <VALUE OBSERVED>
inactive

$$$$
>  <COMPOUND>
Cc1noc(C)c1-c1nccc(NCc2cccnc2)n1

>  <ASSAYED SYSTEM>
Cytochrome P450 3A4 (Homo sapiens)

>  <VALUE OBSERVED>
3.98 µM (active)

$$$$
>  <COMPOUND>
CCOC(=O)c1[nH]c(C(=O)O)c(CCC(=O)OC)c1C

>  <ASSAYED SYSTEM>
Cytochrome P450 3A4 (Homo sapiens)

>  <VALUE OBSERVED>
inactive

$$$$
>  <COMPOUND>
O=C(c1nn(Cc2ccccc2)c(=O)c2ccccc12)N1CCN(C/C=C/c2ccccc2)CC1

>  <ASSAYED SYSTEM>
Cytochrome P450 3A4 (Homo sapiens)

>  <VALUE OBSERVED>
2.24 µM (active)

$$$$
>  <COMPOUND>
O=C(Cc1ccc(Cl)cc1)Nc1cccc(-c2nnc(-c3ccco3)o2)c1

>  <ASSAYED SYSTEM>
Cytochrome P450 3A4 (Homo sapiens)

>  <VALUE OBSERVED>
7.94 µM (active)

$$$$

For `CCC(=O)c1ccc(OCc2ccc(C(=O)OC)cc2)c(OC)c1` the compound record lists AC50 as 4.47 µM (active)

Input CCC(NC(=O)c1ccccc1NC(=O)c1ccco1)C(=O)NC1CCCCC1 (centres undefined) . Output AC50: 6.31 µM (active)

Form: compound = O=C(Cc1ccccc1)NC(NCCc1ccccc1)C(Cl)(Cl)Cl (centres undefined) ; AC50 = 14.1 µM (active)

For record `Cc1cc(C)c(C#N)c(Oc2ccc(F)cc2)n1` the listed AC50 is 8.91 µM (active)

Hey, just so you know, these numbers are from PubChem BioAssay AID1851.
